TARGET_OR_TEST_SYSTEM: T1, hANGPTL3(17-460)-His (human, UniProt Q9Y5C1 17-460)
T1 construct: Bought protein (R&D Systems); also called full-length mature human ANGPTL3 with a C-terminal decahistidine tag; Human ANGPTL3 (17-460)-His
T1 sequence: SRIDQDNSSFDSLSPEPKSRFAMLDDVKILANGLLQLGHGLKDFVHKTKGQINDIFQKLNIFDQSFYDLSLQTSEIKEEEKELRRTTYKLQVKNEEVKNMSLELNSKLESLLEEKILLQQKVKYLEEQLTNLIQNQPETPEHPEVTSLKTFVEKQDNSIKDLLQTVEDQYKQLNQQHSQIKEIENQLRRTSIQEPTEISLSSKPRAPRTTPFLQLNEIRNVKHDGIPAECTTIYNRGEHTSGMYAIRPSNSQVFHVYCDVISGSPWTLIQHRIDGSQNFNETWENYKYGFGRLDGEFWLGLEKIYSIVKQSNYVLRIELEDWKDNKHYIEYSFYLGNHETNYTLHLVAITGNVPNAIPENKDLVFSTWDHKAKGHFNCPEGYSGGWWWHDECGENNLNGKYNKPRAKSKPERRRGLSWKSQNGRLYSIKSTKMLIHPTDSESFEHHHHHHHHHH
EXPERIMENT: SPR Biacore, antigen captured, 25C, pH 7.4, HBS-EP
EXPERIMENTAL_ENDPOINT: t1/2 (h)
// note: answer is a bare numeric in h

Examples with answers:
binder="H4H1263S (antibody, IgG4, V domains shown) VH: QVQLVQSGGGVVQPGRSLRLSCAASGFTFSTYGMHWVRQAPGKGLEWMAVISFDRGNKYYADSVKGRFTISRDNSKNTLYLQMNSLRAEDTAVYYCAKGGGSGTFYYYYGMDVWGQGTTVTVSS VL: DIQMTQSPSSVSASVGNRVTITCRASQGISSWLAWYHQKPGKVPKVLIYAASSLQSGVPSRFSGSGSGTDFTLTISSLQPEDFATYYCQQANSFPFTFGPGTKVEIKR" recorded_result=0.15
binder="H4H1296P (antibody, IgG4, V domains shown) VH: QVQLVESGGVSVKPGGSLRLSCAASGFTFSDYYMSWIRQAPGKGLEWVSYIGSSGTNDYYADSVKGRFTISRDNAKNSLYLQMDSLRAEDTAVYYCARDSSQMGFDYWGQGTLVTVSS VL: DIQMTQSPSSLSASVGDRVTITCRASQNIINFLNWYQQRPGKAPQLLIYVAASLQSGVPSRFTGSGYGTDFTLTISSLQPEDFATYYCQQTYTNPLTFGGGTKVEIKR" recorded_result=4.67
binder="H4H1282P (antibody, IgG4, V domains shown) VH: EVQLVQSGGGVVQPGRSLRLSCAASGFTFSNYGMHWVRQAPGKGLEWVAVVWYDGDNKYYADSVKGRFTISRDNSKNTLYLQMNSLRAEDTAVYYCARDIITSRPTLDYWGQGTLVTVSS VL: DIQLTQSPSFLSASVGDRVTITCWASQGINSYLAWYQQKPGKAPKLLIYPASTLQSGVPSRFSGSGSGTEFTLTISSLQPVDFATYYCQQLNSYPLTFGGGTKVEIKR" recorded_result=2.08
binder="H4H1268S (antibody, IgG4, V domains shown) VH: QVQLQQSGPGLVKPSQTLSLTCAISGDSVSSNSPAWNWIRQSPSRGLEWLGRTYYRSKWYNDYAVSVRGRITINPDTSNNQFSLHLNSVTPEDTAMYYCARDKGLTARPTYFDYWGQGTLVTVSS VL: DIQMTQSPSTLSASVGDRVTITCRASQSINYWLAWYQQKPGKAPKPLIYKASSLESGVPSRFSGSGSGTEFTLTISSLQPDDFTTYYCQQYNSYSPTFGQGTKLEIKR" recorded_result=0.1

Now consider the entry below.
**Query** Item H4H1279P (antibody, IgG4, V domains shown) VH: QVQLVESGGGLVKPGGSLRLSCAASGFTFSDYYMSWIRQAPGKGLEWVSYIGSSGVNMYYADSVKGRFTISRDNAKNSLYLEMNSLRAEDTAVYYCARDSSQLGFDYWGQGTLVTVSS VL: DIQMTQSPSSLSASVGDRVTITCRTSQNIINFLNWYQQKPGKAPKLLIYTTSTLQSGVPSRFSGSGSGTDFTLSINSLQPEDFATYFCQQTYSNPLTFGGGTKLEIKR has what recorded t1/2?
**Result** 1.7
